- measurement-target: Prostaglandin G/H synthase 2 (Mus musculus, UniProt Q05769, H122N)
- Sequence (Q05769 whole entry, looked up, stated change not applied): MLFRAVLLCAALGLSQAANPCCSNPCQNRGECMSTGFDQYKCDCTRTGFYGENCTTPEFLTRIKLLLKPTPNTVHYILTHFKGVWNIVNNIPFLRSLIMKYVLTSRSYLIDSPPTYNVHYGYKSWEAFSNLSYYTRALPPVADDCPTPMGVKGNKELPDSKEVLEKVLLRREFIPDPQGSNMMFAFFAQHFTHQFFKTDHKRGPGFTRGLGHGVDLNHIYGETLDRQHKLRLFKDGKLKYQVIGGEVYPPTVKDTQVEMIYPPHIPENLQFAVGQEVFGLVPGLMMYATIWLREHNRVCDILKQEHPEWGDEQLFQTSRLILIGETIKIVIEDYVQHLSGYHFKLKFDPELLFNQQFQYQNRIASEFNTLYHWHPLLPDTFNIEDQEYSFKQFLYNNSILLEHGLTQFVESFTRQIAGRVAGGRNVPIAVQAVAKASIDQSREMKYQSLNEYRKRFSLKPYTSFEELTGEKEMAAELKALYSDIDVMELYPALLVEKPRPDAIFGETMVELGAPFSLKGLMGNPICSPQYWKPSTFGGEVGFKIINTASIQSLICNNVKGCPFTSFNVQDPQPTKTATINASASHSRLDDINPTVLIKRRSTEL
- method-notes: Inhibitory concentration against H122N mutant murine Prostaglandin G/H synthase 2
observed-property: IC50 (nM)

P: COc1ccc2c(c1)c(CC(=O)N[C@@H](C)CO)c(C)n2C(=O)c1ccc(Cl)cc1
Q: COc1ccc2c(c1)c(CC(=O)N[C@H](C)CO)c(C)n2C(=O)c1ccc(Cl)cc1
Prompt: Sort P and Q by IC50 descending and give the first. In your reply, give the label of the chosen option.
Completion: Q
(Q: 690 nM, P: 300 nM)

====

- measurement-target: Prostaglandin G/H synthase 2 (Mus musculus, UniProt Q05769, R106A)
- Sequence (Q05769 18-604 R106A limits assumed): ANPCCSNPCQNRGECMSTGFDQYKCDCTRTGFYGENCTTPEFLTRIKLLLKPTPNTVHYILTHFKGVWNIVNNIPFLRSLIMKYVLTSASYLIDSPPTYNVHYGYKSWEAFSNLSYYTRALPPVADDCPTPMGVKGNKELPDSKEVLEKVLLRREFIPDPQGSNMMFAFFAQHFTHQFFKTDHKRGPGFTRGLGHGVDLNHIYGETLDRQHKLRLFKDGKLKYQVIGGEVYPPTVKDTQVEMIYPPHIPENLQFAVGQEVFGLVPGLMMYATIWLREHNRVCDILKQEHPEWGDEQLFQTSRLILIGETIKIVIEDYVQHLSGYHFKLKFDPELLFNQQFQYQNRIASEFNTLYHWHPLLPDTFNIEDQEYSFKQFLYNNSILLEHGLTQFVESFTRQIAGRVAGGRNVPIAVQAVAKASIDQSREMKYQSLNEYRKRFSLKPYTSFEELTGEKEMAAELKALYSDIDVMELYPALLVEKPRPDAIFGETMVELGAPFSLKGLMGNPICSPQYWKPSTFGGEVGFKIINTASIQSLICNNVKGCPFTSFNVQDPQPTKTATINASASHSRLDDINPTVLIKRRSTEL
- method-notes: Inhibitory concentration against R120A mutant murine Prostaglandin G/H synthase 2
pIC50: −log10 of the molar value.
observed-property: pIC50

query_smiles=COc1ccc2c(c1)c(CC(=O)N[C@H](C)CO)c(C)n2C(=O)c1ccc(Cl)cc1 experimental_result=7.30
query_smiles=COc1ccc2c(c1)c(CC(=O)N[C@@H](C)CO)c(C)n2C(=O)c1ccc(Cl)cc1 experimental_result=7.22

====

- measurement-target: Prostaglandin G/H synthase 2 (Mus musculus, UniProt Q05769, S516A)
- Sequence (Q05769 18-604 S516A limits assumed): as the sequence (Q05769 18-604 R106A limits assumed) above, with A89R, S499A counted along it
- method-notes: Inhibitory concentration against S530A mutant murine Prostaglandin G/H synthase 2
pIC50: −log10 of the molar value.
observed-property: pIC50

1: COc1ccc2c(c1)c(CC(=O)N[C@H](C)CO)c(C)n2C(=O)c1ccc(Cl)cc1
2: COc1ccc2c(c1)c(CC(=O)N[C@@H](C)CO)c(C)n2C(=O)c1ccc(Cl)cc1
Prompt: Sort 1 and 2 by pIC50 descending and give the first. In your reply, give the label of the chosen option.
Completion: 2
(2: 6.82, 1: 6.24)

====

- measurement-target: Prostaglandin G/H synthase 2 (Mus musculus, UniProt Q05769, Y101L)
- method-notes: Inhibitory concentration against Y115L mutant murine Prostaglandin G/H synthase 2
observed-property: IC50 (nM)

query_smiles=COc1ccc2c(c1)c(CC(=O)N[C@H](C)CO)c(C)n2C(=O)c1ccc(Cl)cc1 measurement_target="Prostaglandin G/H synthase 2 (Mus musculus, UniProt Q05769, Y101L)" unit_tag=nM experimental_result=325
query_smiles=COc1ccc2c(c1)c(CC(=O)N[C@@H](C)CO)c(C)n2C(=O)c1ccc(Cl)cc1 measurement_target="Prostaglandin G/H synthase 2 (Mus musculus, UniProt Q05769, Y101L)" unit_tag=nM experimental_result=390

====

- measurement-target: Prostaglandin G/H synthase 2 (Mus musculus, UniProt Q05769, L489F)
- Sequence (Q05769 18-604 L489F limits assumed): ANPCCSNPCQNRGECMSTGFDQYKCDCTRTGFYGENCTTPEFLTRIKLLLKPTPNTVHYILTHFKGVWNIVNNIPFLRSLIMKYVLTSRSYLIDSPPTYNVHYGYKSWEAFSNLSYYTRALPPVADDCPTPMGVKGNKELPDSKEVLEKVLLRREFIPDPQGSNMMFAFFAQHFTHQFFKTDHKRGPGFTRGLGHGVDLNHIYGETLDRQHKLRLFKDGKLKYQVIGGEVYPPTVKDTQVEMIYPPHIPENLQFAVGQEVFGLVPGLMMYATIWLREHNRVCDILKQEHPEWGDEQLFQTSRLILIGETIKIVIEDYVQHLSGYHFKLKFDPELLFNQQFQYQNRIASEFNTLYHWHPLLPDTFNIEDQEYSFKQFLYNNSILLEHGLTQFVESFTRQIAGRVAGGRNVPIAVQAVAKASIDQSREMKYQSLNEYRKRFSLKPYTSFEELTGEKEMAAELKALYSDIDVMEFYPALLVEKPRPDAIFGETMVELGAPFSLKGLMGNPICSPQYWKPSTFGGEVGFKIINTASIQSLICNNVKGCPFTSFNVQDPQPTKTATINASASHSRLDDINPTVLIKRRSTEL
- method-notes: Inhibitory concentration against L503F mutant murine Prostaglandin G/H synthase 2
observed-property: IC50 (nM)
Write the number in nM without appending the unit.

Bench note, Prostaglandin G/H synthase 2 (Mus musculus, UniProt Q05769, L489F): COc1ccc2c(c1)c(CC(=O)N[C@H](C)CO)c(C)n2C(=O)c1ccc(Cl)cc1 , IC50 reads 300

====

- measurement-target: Prostaglandin G/H synthase 2 (Mus musculus, UniProt Q05769, R106Q)
- method-notes: Inhibitory concentration against R120Q mutant murine Prostaglandin G/H synthase 2
observed-property: IC50 (nM)

query_smiles=COc1ccc2c(c1)c(CC(=O)N[C@H](C)CO)c(C)n2C(=O)c1ccc(Cl)cc1 experimental_result=90
query_smiles=COc1ccc2c(c1)c(CC(=O)N[C@@H](C)CO)c(C)n2C(=O)c1ccc(Cl)cc1 experimental_result=75

====

pIC50, Prostaglandin G/H synthase 2 (Homo sapiens), per-entry values.
pIC50: −log10 of the molar value.
observed-property: pIC50

The cases that follow already have their pIC50 on record.
compound=COC[C@@H](C)NC(=O)Cc1c(C)n(C(=O)c2ccc(Cl)cc2)c2ccc(OC)cc12 experimental_result=6.85
compound=COc1ccc2c(c1)c(CC(=O)N[C@@H](C)CO)c(C)n2C(=O)c1ccc(Cl)cc1 experimental_result=6.57
compound=COc1ccc2c(c1)c(CC(=O)NC[C@H](O)c1ccccc1)c(C)n2C(=O)c1ccc(Cl)cc1 experimental_result=6.68
compound=COc1ccc2c(c1)c(CC(=O)NC[C@@H](O)c1ccccc1)c(C)n2C(=O)c1ccc(Cl)cc1 experimental_result=7.33
compound="CCC(C)[C@@H](CO)NC(=O)Cc1c(C)n(C(=O)c2ccc(Cl)cc2)c2ccc(OC)cc12 (some centres undefined)" experimental_result=6.96

I: COc1ccc2c(c1)c(CC(=O)N[C@H](CO)c1ccccc1)c(C)n2C(=O)c1ccc(Cl)cc1
II: COc1ccc2c(c1)c(CC(=O)N[C@H](C)CO)c(C)n2C(=O)c1ccc(Cl)cc1
III: COc1ccc2c(c1)c(CC(=O)N[C@H](CO)CCSC)c(C)n2C(=O)c1ccc(Cl)cc1
IV: COc1ccc2c(c1)c(CC(=O)NC[C@H](C)O)c(C)n2C(=O)c1ccc(Cl)cc1
Prompt: # desc sort on pIC50 across 4 compounds # list labels per requested ordering
Completion: I, II, IV, III
(I: 7.07, II: 6.77, IV: 6.49, III: 6.00)

====

- measurement-target: Prostaglandin G/H synthase 2 (Mus musculus, UniProt Q05769, S105V)
- Sequence (Q05769 18-604 S105V limits assumed): as the sequence (Q05769 18-604 L489F limits assumed) above, with S88V, F472L counted along it
- method-notes: Inhibitory concentration against S119V mutant murine Prostaglandin G/H synthase 2
pIC50: −log10 of the molar value.
observed-property: pIC50

query_smiles=COc1ccc2c(c1)c(CC(=O)N[C@H](C)CO)c(C)n2C(=O)c1ccc(Cl)cc1 experimental_result=6.62
query_smiles=COc1ccc2c(c1)c(CC(=O)N[C@@H](C)CO)c(C)n2C(=O)c1ccc(Cl)cc1 experimental_result=6.70

====

- measurement-target: Prostaglandin G/H synthase 2 (Mus musculus)
- method-notes: Inhibitory concentration against VRV, mutant murine Prostaglandin G/H synthase 2
pIC50: −log10 of the molar value.
observed-property: pIC50

1: COc1ccc2c(c1)c(CC(=O)N[C@H](C)CO)c(C)n2C(=O)c1ccc(Cl)cc1
2: COc1ccc2c(c1)c(CC(=O)N[C@@H](C)CO)c(C)n2C(=O)c1ccc(Cl)cc1
Prompt: Looking at recorded values for pIC50, does 1 or 2 come in lower? In your reply, give the label of the chosen option.
Completion: 1

====

- measurement-target: Prostaglandin G/H synthase 2 (Mus musculus, UniProt Q05769, I92L)
- Sequence (Q05769 whole entry, looked up, stated change not applied): as the sequence (Q05769 whole entry, looked up, stated change not applied) above
- method-notes: Inhibitory concentration against I92L mutant murine Prostaglandin G/H synthase 2
pIC50: −log10 of the molar value.
observed-property: pIC50

query_smiles=COc1ccc2c(c1)c(CC(=O)N[C@H](C)CO)c(C)n2C(=O)c1ccc(Cl)cc1 experimental_result=6.70
query_smiles=COc1ccc2c(c1)c(CC(=O)N[C@@H](C)CO)c(C)n2C(=O)c1ccc(Cl)cc1 experimental_result=6.70

====

- measurement-target: Prostaglandin G/H synthase 2 (Mus musculus, UniProt Q05769, E510L)
- method-notes: Inhibitory concentration against E524L mutant murine Prostaglandin G/H synthase 2
pIC50: −log10 of the molar value.
observed-property: pIC50

a: COc1ccc2c(c1)c(CC(=O)N[C@@H](C)CO)c(C)n2C(=O)c1ccc(Cl)cc1
b: COc1ccc2c(c1)c(CC(=O)N[C@H](C)CO)c(C)n2C(=O)c1ccc(Cl)cc1
Prompt: Sort a and b by pIC50 descending and give the first. In your reply, give the label of the chosen option.
Completion: a

====

IC50, Prostaglandin G/H synthase 1 (Ovis aries, UniProt P05979), per-entry values.
observed-property: IC50 (µM)

The cases that follow already have their IC50 on record.
query_smiles=COc1ccc2c(c1)c(CC(=O)N[C@H](C)CO)c(C)n2C(=O)c1ccc(Cl)cc1 observed_property=IC50 unit_tag=µM experimental_result=33
query_smiles=COc1ccc2c(c1)c(CC(=O)NC[C@@H](O)c1ccccc1)c(C)n2C(=O)c1ccc(Cl)cc1 observed_property=IC50 unit_tag=µM experimental_result=56

P: COc1ccc2c(c1)c(CC(=O)NC[C@H](C)O)c(C)n2C(=O)c1ccc(Cl)cc1
Q: CC[C@@H](CO)NC(=O)Cc1c(C)n(C(=O)c2ccc(Cl)cc2)c2ccc(OC)cc12
R: COc1ccc2c(c1)c(CC(=O)N[C@@H](CO)CCSC)c(C)n2C(=O)c1ccc(Cl)cc1
S: COC[C@@H](C)NC(=O)Cc1c(C)n(C(=O)c2ccc(Cl)cc2)c2ccc(OC)cc12
T: CC[C@@H](C)NC(=O)Cc1c(C)n(C(=O)c2ccc(Cl)cc2)c2ccc(OC)cc12
Prompt: # desc sort on IC50 across 5 molecules # list labels per requested ordering
Completion: R, P, S, Q, T

====

pIC50, Prostaglandin G/H synthase 2 (Homo sapiens), per-entry values.
pIC50: −log10 of the molar value.
observed-property: pIC50

1: COc1ccc2c(c1)c(CC(=O)N[C@H](CO)Cc1ccccc1)c(C)n2C(=O)c1ccc(Cl)cc1
2: COc1ccc2c(c1)c(CC(=O)NN1CCC[C@H]1CO)c(C)n2C(=O)c1ccc(Cl)cc1
Prompt: Sort 1 and 2 by pIC50 descending and give the first. In your reply, give the label of the chosen option.
Completion: 1
(1: 7.07, 2: 5.74)

I: COc1ccc2c(c1)c(CC(=O)NC[C@@H](C)O)c(C)n2C(=O)c1ccc(Cl)cc1
II: CC[C@H](C)NC(=O)Cc1c(C)n(C(=O)c2ccc(Cl)cc2)c2ccc(OC)cc12
III: COc1ccc2c(c1)c(CC(=O)NN1CCC[C@@H]1CO)c(C)n2C(=O)c1ccc(Cl)cc1
IV: COc1ccc2c(c1)c(CC(=O)NC(C)(C)CO)c(C)n2C(=O)c1ccc(Cl)cc1
Prompt: Task for the reader: rank each entry by its pIC50, from the minimum upward. # list labels per requested ordering
Completion: III, I, IV, II
(III: 5.77, I: 6.48, IV: 6.72, II: 6.96)

a: COc1ccc2c(c1)c(CC(=O)NCCCCO)c(C)n2C(=O)c1ccc(Cl)cc1
b: CC[C@H](CO)NC(=O)Cc1c(C)n(C(=O)c2ccc(Cl)cc2)c2ccc(OC)cc12
Prompt: Looking at recorded values for pIC50, does a or b come in lower? In your reply, give the label of the chosen option.
Completion: a
(a: 6.55, b: 7.00)

Source of measurements: ChEMBL document CHEMBL1135305
